Taken from paper PMC4336329.

Biological target: human ether-à-go-go-related gene (hERG) potassium channel (human, UniProt Q12809);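 further: peak tail current of the secondary pulse compared with the same well before compound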
Sequence (Q12809 whole entry, looked up): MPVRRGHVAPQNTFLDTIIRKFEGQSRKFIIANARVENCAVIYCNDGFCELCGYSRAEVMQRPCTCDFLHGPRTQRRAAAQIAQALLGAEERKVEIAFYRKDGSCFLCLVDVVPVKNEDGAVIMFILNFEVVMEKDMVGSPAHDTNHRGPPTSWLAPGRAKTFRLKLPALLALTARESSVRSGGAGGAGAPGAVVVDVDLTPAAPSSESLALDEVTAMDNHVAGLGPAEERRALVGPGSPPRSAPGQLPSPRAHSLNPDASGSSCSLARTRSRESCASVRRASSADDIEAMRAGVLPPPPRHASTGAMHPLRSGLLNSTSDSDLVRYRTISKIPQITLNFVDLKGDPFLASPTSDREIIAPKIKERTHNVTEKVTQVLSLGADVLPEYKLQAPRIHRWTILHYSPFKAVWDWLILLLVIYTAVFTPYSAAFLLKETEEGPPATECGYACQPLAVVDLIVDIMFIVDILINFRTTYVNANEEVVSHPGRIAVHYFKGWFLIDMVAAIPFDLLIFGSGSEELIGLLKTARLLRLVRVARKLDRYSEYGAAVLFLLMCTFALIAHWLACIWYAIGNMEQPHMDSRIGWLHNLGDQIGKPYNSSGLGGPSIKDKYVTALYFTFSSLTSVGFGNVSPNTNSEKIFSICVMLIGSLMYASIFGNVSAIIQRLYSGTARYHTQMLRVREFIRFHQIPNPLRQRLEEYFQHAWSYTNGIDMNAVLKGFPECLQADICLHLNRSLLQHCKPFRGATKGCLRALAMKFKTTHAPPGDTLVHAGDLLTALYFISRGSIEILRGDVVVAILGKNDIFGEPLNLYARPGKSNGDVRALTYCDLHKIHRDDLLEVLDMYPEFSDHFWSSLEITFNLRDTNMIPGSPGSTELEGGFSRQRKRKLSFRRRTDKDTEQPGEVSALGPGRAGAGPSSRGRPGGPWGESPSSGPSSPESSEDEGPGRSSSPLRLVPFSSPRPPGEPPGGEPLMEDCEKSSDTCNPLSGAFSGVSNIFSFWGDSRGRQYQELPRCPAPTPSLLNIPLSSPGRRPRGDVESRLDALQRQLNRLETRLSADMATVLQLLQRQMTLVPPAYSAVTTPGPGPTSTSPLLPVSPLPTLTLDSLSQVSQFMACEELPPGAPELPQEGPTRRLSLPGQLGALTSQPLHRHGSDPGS
Test: primary screen, population patch clamp on CHO cells stably expressing hERG; higher = less effect of the substance
Experimental: Briefly, Chinese hamster ovary (CHO) cells stably expressing the hERG channel were dislodged from tissue culture flasks and dispensed into PPC plates. […] During the recording, background leak currents were estimated by a 100 ms step to -80 mV from an initial holding potential of -70 mV and subtracted from the subsequent current measurement. The campaign was conducted in two phases using slight differences in recording protocol. […]
Out of some 310,000 compounds screened, about 14,000 (4.5%) showed an effect of 50% or more. Effects have a minus sign here. The sample as a whole holds a higher share of strong results than the screen did.
Some compounds, each annotated with its measured hERG current change (%, negative = inhibition) at 10uM.
REPORTED_ENDPOINT: hERG current change (%, negative = inhibition) at 10uM

> print(dat)
                                   compound  recorded.measurement
1  COC(=O)CCCC1=CC2=C(c3ccccc3)C(=O)C(C)(OC(=O)C3CCCC3)C(=O)C2=CN1Cc1ccc(OC)cc1 (stereo not drawn)                -4.26%
2  O=C(O)C(=O)O.O=S(=O)(c1ccc(Cl)cc1)N1CCN(Cc2ccncc2)CC1                -51.5%
3  CC(C(=O)Nc1cccc([N+](=O)[O-])c1)n1nnc2ccccc21 (stereo not drawn)                -33.5%
4  COC(C(=O)Nc1cccc([N+](=O)[O-])c1)c1ccccc1 (stereo not drawn)                 1.56%
5  COC(=O)CCCC1=CC2=C(c3ccccc3)C(=O)C(C)(OC(=O)C3CCCC3)C(=O)C2=CN1Cc1ccco1 (stereo not drawn)                -56.8%
6  CC(C)c1c(C(=O)N/N=C/c2ccsc2)nnn1-c1nonc1N                 23.8%
7  O=S(=O)(c1ccc(Cl)cc1)N1CCN(CCc2ccccc2)CC1                 -3.7%
8  Cc1ccc(S(=O)(=O)NCC(C)n2nc(C)nc2C)cc1 (stereo not drawn)               -0.542%
9     O=S(=O)(c1ccccc1)N1CCN(CCc2ccccc2)CC1                 14.2%

###

Target: human ether-à-go-go-related gene (hERG) potassium channel (human);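 further: peak tail current of the secondary pulse compared with the same well before compound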
Assay: primary screen, population patch clamp on CHO cells stably expressing hERG; higher = less effect of the substance
Out of some 310,000 compounds screened, about 14,000 (4.5%) showed an effect of 50% or more. The effect is printed as a negative number. Shown is part of a subset that was picked to be rich in strong results.
Some molecules, each annotated with its measured hERG current change (%, negative = inhibition) at 10uM.
REPORTED_ENDPOINT: hERG current change (%, negative = inhibition) at 10uM (%)

> print(dat)
                                   molecule  measure.unit  recorded.measurement
1  COc1ccc(N(C(=O)c2ccc(S(=O)(=O)N3CCCC3)cc2)C2C=CS(=O)(=O)C2)cc1 (centres unmarked)             %                 -31.9
2  CNC(=O)C(C)N1c2cccc3cccc(c23)S1(=O)=O (centres unmarked)             %                  22.3
3  CCC(=NCCc1c[nH]c2ccccc12)c1c(O)n(C)c(=O)n(C)c1=O             %                 -10.8
4  COCCn1c(C)cc(C(=O)COc2ccc(N(C)S(=O)(=O)c3ccc(C)cc3)cc2)c1C             %                 -19.9
5  Cc1ccc(N(C(=O)c2ccc(S(=O)(=O)N3CCCC3)cc2)C2C=CS(=O)(=O)C2)cc1 (centres unmarked)             %                 -32.9
